Values compiled from ChEMBL document CHEMBL3351983.

TEST_SYSTEM: 3-phosphoinositide-dependent protein kinase 1 (Homo sapiens)
METHOD_SUMMARY: Inhibition of PDK1 (unknown origin) at 10 uM using PDKtide substrate and [gamma-32P]ATP by scintillation counting method
RECORDED_METRIC: inhibition (%)
// note: answer is a bare numeric in %

Name the reported inhibition value associated with the compound NC(=O)Nc1ccc2[nH]c(=O)c(Nc3cccc(NC(=O)N4CCCC4)c3)cc2c1 40

Now consider COc1cccc(-c2cccc(Nc3cc4cc(NC(=O)N5CCCC5)ccc4[nH]c3=O)c2)c1 and answer again. 29

Now consider NC(=O)Nc1ccc2[nH]c(=O)c(Nc3cc(CC(=O)NCCN4CCCCC4)cc(NC(=O)N4CCCC4)c3)cc2c1 and answer again. 40

Now consider O=C(Cc1ccc2[nH]c(=O)c(Nc3ccccc3)cc2c1)NCCN1CCCCC1 and answer again. 36

Now consider CC(=O)Nc1cccc(Nc2cc3cc(NC(N)=O)ccc3[nH]c2=O)c1 and answer again. 20

Now consider O=C(Nc1ccc2[nH]c(=O)c(Nc3cccc(-c4nnn[nH]4)c3)cc2c1)N1CCCC1 and answer again. 14

Now consider N#Cc1cccc(Nc2cc3cc(NC(=O)N4CCCC4)ccc3[nH]c2=O)c1 and answer again. 30

Now consider CCOc1cccc(Nc2cc3cc(NC(=O)N4CCCC4)ccc3[nH]c2=O)c1 and answer again. 23
